Would you mind telling me the reported inhibition at 25 µM of each entry?
target: A/M2 protein (IonGate S31) (Influenza A virus); construct: expressed in transfected cells; host or cells: CHO cell membranes; assay: Cell-free electrophysiology of M2 proton channels on solid supported membranes (SSM, IonGate SURFE2R); format: biochemical; details: 25 μM compound, activation by pH jump 7.0 to 6.0, % inhibition=100×(1−I/Io), read-out: IonGate S31 (% Inhibition Range at 25 μM)
Sequence (P0DOF5 whole entry): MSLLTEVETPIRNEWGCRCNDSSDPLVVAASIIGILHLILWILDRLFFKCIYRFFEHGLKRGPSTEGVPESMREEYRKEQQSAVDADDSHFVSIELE
Counter-ions that a name gives are not always drawn.

{"Compound": "NC12CC3COC(CC(C3)C1)C2 (stereo not drawn) [Example 16, hydrochloride]", "Readout Value": "11 to 50%"}
{"Compound": "NC12CC3CC(CC(C1)C(F)C3)C2 (stereo not drawn) [Example 3, hydrochloride]", "Readout Value": "51 to 95%"}
{"Compound": "NC12CC3CC(CC(C1)C(I)C3)C2 (stereo not drawn) [Example 5, hydrochloride]", "Readout Value": "11 to 50%"}
{"Compound": "NC12CC3CC(C1)OC(=O)C(C3)C2 (stereo not drawn) [Example 13, hydrochloride]", "Readout Value": "1 to 10%"}
{"Compound": "NC12CC3CC(CC(C1)C(O)C3)C2 (stereo not drawn) [Example 1, hydrochloride]", "Readout Value": "11 to 50%"}

Look up inhibition at 25 µM for the entries below, preserving their order.
1. NC12CC3CNC(CC(C3)C1)C2 (stereo not drawn) [Example 15, dihydrochloride]
2. N#CC1CC2CC3CC1CC(N)(C2)C3 (stereo not drawn) [Example 8, hydrochloride]
3. NC12CC3CC(C1)NC(=O)C(C3)C2 (stereo not drawn) [Example 14, hydrochloride]
4. NC12CC3CC(=NO)C(CC(C3)C1)C2 (stereo not drawn) [Example 12, hydrochloride]

["11 to 50%", "51 to 95%", "1 to 10%", "1 to 10%"]
